Value source: ChEMBL document CHEMBL3286358

# METHOD_SUMMARY: Inhibition of EZH2 histone methyltransferase […] mutant in EZH2/SUZ12/EED/RbAp46/48 protein complex (unknown origin) using histone H3 peptide/S-adenosylmethionine as substrate after 2 hrs by Lineweaver-Burk plot analysis
# Set-up: species or system Homo sapiens
READOUT_LABEL: pKi
Kindly note that pKi refers to -log10 of the concentration in mol/L and answer with the value alone.

## Task For the compound "Cc1coc2c1C(=O)C(=O)c1c-2ccc2c1CC[C@@H](O)[C@]2(C)O" , what pKi is on record?
## Result 6.75
